Biological target: T1, CRBN, Q96SW2;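 also: pooled lentiviral library of zinc finger degron-EGFP fusions in mCherry-positive Jurkat cells, FACS-sorted after compound exposure, with degron abundance counted by next-generation sequencing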
T1 chain: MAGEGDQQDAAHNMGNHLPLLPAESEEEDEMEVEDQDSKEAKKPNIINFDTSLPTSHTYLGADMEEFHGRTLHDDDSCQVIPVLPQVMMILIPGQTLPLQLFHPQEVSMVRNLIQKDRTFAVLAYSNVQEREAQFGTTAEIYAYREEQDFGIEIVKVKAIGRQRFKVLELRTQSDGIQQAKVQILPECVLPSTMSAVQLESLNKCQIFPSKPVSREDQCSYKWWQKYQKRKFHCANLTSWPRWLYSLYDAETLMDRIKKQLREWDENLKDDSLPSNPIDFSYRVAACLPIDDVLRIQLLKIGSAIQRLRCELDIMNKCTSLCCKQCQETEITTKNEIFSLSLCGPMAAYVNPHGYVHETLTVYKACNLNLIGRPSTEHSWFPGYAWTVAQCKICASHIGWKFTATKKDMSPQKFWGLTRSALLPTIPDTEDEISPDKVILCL
Assay: log2 fold change of degron read counts, EGFP-low vs EGFP+ sorted cells (limma voom), compound-induced degradation; higher = more compound-induced degradation of the degron-EGFP fusion; degrons are variants of IKZF1/3 zinc finger 2; compound dose not given here
Conditions: Jurkat; 18 h; compound: compound 22 (5-morpholino-thalidomide)
Whole data set: some 8,300 sequences, median “log2 fold change of degron read counts, EGFP-low vs EGFP+ sorted cells (limma voom), compound-induced degradation” near -1.1, cut for the highest 2% near 3.2. The full list was thinned out, with the highest values kept by preference.
Parameter Measured: log2 fold change of degron read counts
The response must contain the number and no unit.

Worked examples, 3 sequences total:
{"Sequence Entry": "FHCPVCGAFFTQKGNLLRHIKL [46F_47H_49P_50V_52G_53A_54F_55F_67L_, Q9UKT9]", "Measured Value": 0.598}
{"Sequence Entry": "FCCDICGAPFTQKGNLLRHIKL [46F_47C_49D_50I_52G_53A_54P_55F_67L_, Q9UKT9]", "Measured Value": 2.21}
{"Sequence Entry": "FTCPICGAIFTQKGNLLRHIKL [46F_47T_49P_50I_52G_53A_54I_55F_67L_, Q9UKT9]", "Measured Value": 1.34}

Entry FWCDICGAPFTQKGNLLRHIKL [46F_47W_49D_50I_52G_53A_54P_55F_67L_, Q9UKT9] — recorded log2 fold change of degron read counts = 2.32

Entry LACNQCGFRCTQKGNLLRHIKL [46L_47A_49N_50Q_52G_53F_54R_55C_67L_, Q9UKT9] — recorded log2 fold change of degron read counts = -1.5

Entry LVCNQCGFDCTQKGNLLRHIKL [46L_47V_49N_50Q_52G_53F_54D_55C_67L_, Q9UKT9] — recorded log2 fold change of degron read counts = -3.3

Entry FYCDICGAPFTQKGNLLRHIKL [46F_47Y_49D_50I_52G_53A_54P_55F_67L_, Q9UKT9] — recorded log2 fold change of degron read counts = 3.56

Entry FQCDICGAPFTQKGNLLRHIKL [46F_47Q_49D_50I_52G_53A_54P_55F_67L_, Q9UKT9] — recorded log2 fold change of degron read counts = 3.14
